experiment.summary: gradient 5% acetonitrile 3 min, to 50% in 2 min, to 85% in 15 min, held 3 min, 100 µL/min
experimental.setup: column: Zorbax Extend-C18 2.1 x 50 mm; eluents: water / acetonitrile, 0.1% formic acid
metric.name: RP-LC retention time (s)

Look over these answered cases.
molecule	u	RP-LC retention time
CC(C)CNC(=O)c1cn(-c2cc(-c3nc(C(C)C)no3)ccn2)cn1	s	920
CCCCn1cc(S(=O)(=O)NCc2cccc(Cl)c2)c2cccnc21	s	1020
Cc1cccc2c(=O)n(C3CCN(S(=O)(=O)c4ccc(CC(C)C)cc4)CC3)cnc12	s	1230
Cc1cc(=O)n(CC(=O)Nc2ccccc2C)c(N)n1	s	590
CC(NC(=O)c1ccco1)c1nc2ccccc2n1CC(=O)N(c1ccccc1)C(C)C (stereo not given)	s	725
COc1cc(-c2ccccc2)nc2ccc(NC(=O)COc3ccc(F)cc3)cc12	s	776
COc1ccc(CNC(=O)Cn2c(C)nc3c(sc4nc(-c5ccccc5)ccc43)c2=O)cc1	s	970
O=C1COc2cc(S(=O)(=O)N3CCC(C(=O)N4CCc5ccccc5C4)CC3)c(Cl)cc2N1	s	838
Cc1ccc(CNC(=O)Cn2c(N3CCCCC3)nc(C)cc2=O)cc1	s	661
CC(C)c1ccc(NC(=O)CN2C(=O)C3CCCCN3c3ccc(C(=O)N4CCOCC4)cc32)cc1 (stereo not given)	s	909

[P] Cc1ccc(-n2ccc(=O)c(-c3nc(-c4ccc(F)c(Br)c4)no3)n2)cc1C
[Q] Cc1c(C(=O)NC2CC2)cc(-c2ccccc2)n1C
Q) Short answer wanted: higher RP-LC retention time, P or Q ? Respond using the label that marks the chosen record.
A) P
(P: 1120 s, Q: 605 s)

[P] CCOC(=O)C1CCN(c2cc3c(cc2NC(=O)CCC2CCCC2)n(C)c(=O)c(=O)n3C)CC1
[Q] O=C(C1CCC(=O)N1S(=O)(=O)c1ccccc1)N1CCN(c2ccccn2)CC1 (stereo not given)
Q) Could you tell me which of these two has the smaller RP-LC retention time figure? First: P Second: Q API: response body contains the label of the selected item.
A) Q

[P] N#Cc1ccc(-c2cnc3[nH]cc(NC(=O)c4cccnc4)c3c2)cc1
[Q] COCCNS(=O)(=O)c1cccc(-c2nc(-c3ccc(C)cc3)no2)c1
Q) Would you let me know which has the greater RP-LC retention time value, P or Q ? Pick one and reply with its label.
A) Q
(Q: 1060 s, P: 738 s)
